Source listed as patent US10118926B2.

# Target Under Test: 5-HT2C receptor (Homo sapiens, UniProt P28335)
# Construct: β-galactosidase enzyme-complementation fragment (ProLink-type donor)
# Sequence (P28335 33-458): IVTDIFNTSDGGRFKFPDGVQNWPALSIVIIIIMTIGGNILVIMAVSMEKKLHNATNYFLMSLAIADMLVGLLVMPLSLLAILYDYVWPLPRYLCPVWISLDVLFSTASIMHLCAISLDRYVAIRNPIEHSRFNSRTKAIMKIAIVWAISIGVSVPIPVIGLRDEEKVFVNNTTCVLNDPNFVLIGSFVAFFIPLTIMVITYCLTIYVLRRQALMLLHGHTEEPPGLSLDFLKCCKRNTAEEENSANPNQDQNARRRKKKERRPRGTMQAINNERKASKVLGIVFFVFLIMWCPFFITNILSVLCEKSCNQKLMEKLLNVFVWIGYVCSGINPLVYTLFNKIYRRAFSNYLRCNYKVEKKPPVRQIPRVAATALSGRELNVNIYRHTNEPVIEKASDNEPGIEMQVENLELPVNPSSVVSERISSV
# Sequence (P32121 whole entry partner, the tested form may be a part): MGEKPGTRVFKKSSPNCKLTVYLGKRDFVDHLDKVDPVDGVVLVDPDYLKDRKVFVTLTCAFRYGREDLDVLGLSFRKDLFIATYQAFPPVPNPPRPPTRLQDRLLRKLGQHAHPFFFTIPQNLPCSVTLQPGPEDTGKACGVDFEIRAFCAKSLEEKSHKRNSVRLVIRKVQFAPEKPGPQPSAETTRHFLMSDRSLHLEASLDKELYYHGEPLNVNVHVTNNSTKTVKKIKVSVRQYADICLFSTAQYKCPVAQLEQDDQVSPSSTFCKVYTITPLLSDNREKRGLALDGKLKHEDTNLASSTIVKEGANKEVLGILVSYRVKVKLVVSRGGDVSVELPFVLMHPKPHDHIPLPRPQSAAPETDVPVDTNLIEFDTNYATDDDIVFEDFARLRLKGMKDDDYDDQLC
# Protocol Description: Functional activity: beta-arrestin2 recruitment to the 5-HT2C receptor in U2OS_HTR2C_β-Arrestin cells (DiscoverX)
# Experimental Parameters: U2OS_HTR2C_β-Arrestin cells, 1.5 h incubation, chemiluminescent β-galactosidase complementation readout; read-out: Potency (EC50) in functional assay
Quantity: EC50

Below: 5 compounds and their reported EC50.
(Q) In one line, give reported EC50 of the entry CCN1CCN2CCNCc3cccc1c32 [Example 69] .
(A) 200 to 1000 nM

(Q) In one line, give reported EC50 of the entry c1cc2c3c(c1)N1CC4CC4C1CN3CCNC2 (stereo not drawn) [Example 68] .
(A) 20 to 200 nM

(Q) In one line, give reported EC50 of the entry c1cc2c3c(c1)N(C1COC1)CCN3CCNC2 [Example 35, 2,2,2-trifluoroacetate] .
(A) 20 to 200 nM

(Q) In one line, give reported EC50 of the entry c1cc2c3c(c1)N1CCCCCC1CN3CCNC2 (stereo not drawn) [Example 44] .
(A) 20 to 200 nM

(Q) In one line, give reported EC50 of the entry c1cc2c3c(c1)C1(CCN3CCNC2)CC1 [Example 47] .
(A) 20 to 200 nM

Turning to the following compound.
(Q) In one line, give reported EC50 of the entry CC1CNCc2cccc3c2N1CCN3C1CC1 (stereo not drawn) [Example 42] .
(A) < 20 nM
